Source listed as the supplement of paper PMC11908140.

B1: library; numbered along this chain (parent)
chain: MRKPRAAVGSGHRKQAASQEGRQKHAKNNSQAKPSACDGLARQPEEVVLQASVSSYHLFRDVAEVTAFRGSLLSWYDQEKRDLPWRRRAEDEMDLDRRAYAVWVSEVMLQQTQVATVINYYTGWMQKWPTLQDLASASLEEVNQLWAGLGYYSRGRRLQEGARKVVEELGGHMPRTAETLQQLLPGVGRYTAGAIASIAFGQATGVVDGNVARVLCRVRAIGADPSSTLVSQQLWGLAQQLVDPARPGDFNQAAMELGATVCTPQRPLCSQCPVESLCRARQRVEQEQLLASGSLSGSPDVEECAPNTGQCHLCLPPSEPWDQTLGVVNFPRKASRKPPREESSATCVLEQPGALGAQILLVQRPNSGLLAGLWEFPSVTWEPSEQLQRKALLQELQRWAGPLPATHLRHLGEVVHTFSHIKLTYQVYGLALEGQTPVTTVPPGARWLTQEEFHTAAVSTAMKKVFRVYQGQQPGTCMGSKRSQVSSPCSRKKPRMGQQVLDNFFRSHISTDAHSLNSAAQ

variants of: B1; assay: 8OG:A repair function score (normalized; synonymous = 0, nonsense = -1) (normalized log-likelihood score); higher = more repair activity (WT-like); details: with 8OG:A DNA repair reporter (GFP) in HEK-293 MUTYH KO cells;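 further: cells sorted at 72 h after reporter transfection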
Measured 8OG:A repair function score of individual entries
measured-property: 8OG:A repair function score

• P244F = -0.422
• F466L = -0.0617
• S318C = -0.0155
• R506F = -0.0582
• R217L = -1.01
• A41H = -0.0884
• P225H = -0.374
• N251G = -0.951
• Q323A = -0.0752
• L369K = -0.206
• Q394T = -0.314
